# Target Or Test System: RAC-alpha serine/threonine-protein kinase (Homo sapiens) (UniProt P31749)
# Sequence (P31749 whole entry): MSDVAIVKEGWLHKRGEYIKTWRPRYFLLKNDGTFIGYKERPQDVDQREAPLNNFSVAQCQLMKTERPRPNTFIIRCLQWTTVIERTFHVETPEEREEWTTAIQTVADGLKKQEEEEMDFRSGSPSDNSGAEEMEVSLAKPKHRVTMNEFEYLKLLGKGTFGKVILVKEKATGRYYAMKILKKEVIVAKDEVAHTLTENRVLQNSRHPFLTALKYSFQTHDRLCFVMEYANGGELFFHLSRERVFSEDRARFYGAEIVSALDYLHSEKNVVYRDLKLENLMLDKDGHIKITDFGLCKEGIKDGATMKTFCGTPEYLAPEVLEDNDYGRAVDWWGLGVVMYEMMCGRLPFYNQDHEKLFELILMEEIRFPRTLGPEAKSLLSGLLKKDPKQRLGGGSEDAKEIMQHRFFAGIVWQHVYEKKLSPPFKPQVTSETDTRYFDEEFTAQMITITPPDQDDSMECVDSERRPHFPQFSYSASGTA
# Test Protocol: Inhibition of AKT phosphorylation in serum starved VEGF stimulated HUVEC cells at 20 uM preincubated for 10 mins followed by VEGF addition and measured after 20 mins by Western blotting analysis relative to control
# Assay type: cell-based
# Condition: time 30.0 min
Field: inhibition. Provide a value for each of the molecules that follow.
Please respond with the number in % and leave the unit unwritten.

# return recorded inhibition for entry CCCCC(Cn1nc(Nc2ccccc2C)c(C(=O)OCC)c1N)OC(=O)Nc1cccc(C(F)(F)F)c1 (stereo not given)
29.7

In one line, give reported inhibition of the entry CCCCC(O)Cn1nc(Nc2ccc(C)cc2)c(C(=O)OCC)c1N (stereo not given) .
43

Let me know recorded inhibition for CCCCC(O)Cn1nc(Nc2cccc(C)c2)c(C(=O)OCC)c1N (stereo not given) , thanks.
43

Check the records and state inhibition for CCCCC(O)Cn1nc(Nc2ccccc2C)c(C(=O)OCC)c1N (stereo not given)
43

Provide only the value of recorded inhibition for CCOC(=O)c1c(Nc2ccc(Cl)cc2)nn(CC(O)c2ccccc2)c1N (stereo not given)
21

Provide one value: measured inhibition of CCOC(=O)c1c(Nc2ccc(C)cc2)nn(CC(O)c2ccccc2)c1N (stereo not given)
16.2

Consider the molecule CCOC(=O)c1c(Nc2ccccc2)nn(CC(OC(=O)Nc2cccc(C(F)(F)F)c2)c2ccccc2)c1N (stereo not given) . State its measured inhibition.
34.2

Supply recorded inhibition for CCCCC(O)Cn1nc(Nc2ccccc2)c(C(=O)OCC)c1N (stereo not given) here.
43

Tell us which inhibition value is on record for CCCC(O)Cn1ncc(C(=O)OCC)c1NC(=O)Nc1cccc(C(F)(F)F)c1 (stereo not given)
59.1

Return inhibition (reported value) for this molecule: Cc1nc(Nc2ncc(C(=O)Nc3c(C)cccc3Cl)s2)cc(N2CCN(CCO)CC2)n1 [DASATINIB ANHYDROUS]
24.1

###

# Tested on: MDA-MB-231
# Test Protocol: Antiproliferative activity against human MDA-MB-231 cells assessed as growth rate at 10 uM incubated for 48 hrs by MTT assay relative to control
# Type: functional
# Condition: read-out: Activity
Observation Type: growth at 10 µM (%)
Record the value in %, omitting the unit from your answer.

Provide only the value of recorded growth at 10 µM for CCCCC(Cn1nc(Nc2ccc(Cl)cc2)c(C(=O)OCC)c1N)OC(=O)Nc1cccc(C(F)(F)F)c1 (stereo not drawn)
117

Provide only the value of recorded growth at 10 µM for CCCCC(O)Cn1nc(Nc2cccc(C)c2)c(C(=O)OCC)c1N (stereo not drawn)
113

Determine from records and report growth at 10 µM for CCCCC(Cn1nc(Nc2ccccc2)c(C(=O)OCC)c1N)OC(=O)Nc1cccc(C(F)(F)F)c1 (stereo not drawn)
126

Please look at this compound and report its growth at 10 µM: CCCCC(O)Cn1nc(Nc2ccccc2C)c(C(=O)OCC)c1N (stereo not drawn)
127

Provide only the value of recorded growth at 10 µM for CCCCC(Cn1nc(Nc2ccccc2Cl)c(C(=O)OCC)c1N)OC(=O)Nc1cccc(C(F)(F)F)c1 (stereo not drawn)
133

Dear colleague, please send me the reported growth at 10 µM for CCCCC(Cn1nc(Nc2ccc(C)cc2)c(C(=O)OCC)c1N)OC(=O)Nc1cccc(C(F)(F)F)c1 (stereo not drawn) when you can.
149

Consider the compound CCCCC(O)Cn1nc(Nc2ccccc2)c(C(=O)OCC)c1N (stereo not drawn) . State its measured growth at 10 µM.
131

# return recorded growth at 10 µM for input CCCCC(Cn1nc(Nc2ccccc2C)c(C(=O)OCC)c1N)OC(=O)Nc1cccc(C(F)(F)F)c1 (stereo not drawn)
117

Note growth at 10 µM for the compound shown: CCCCC(O)Cn1nc(Nc2ccc(C)cc2)c(C(=O)OCC)c1N (stereo not drawn)
134

Report growth at 10 µM for CCOC(=O)c1c(Nc2ccc(Cl)cc2)nn(CC(O)c2ccccc2)c1N (stereo not drawn)
127

Answer with the recorded growth at 10 µM for the compound listed here: CCOC(=O)c1c(Nc2ccccc2)nn(CC(O)c2ccccc2)c1N (stereo not drawn)
131

Identify the reported growth at 10 µM for the following entry. CCOC(=O)c1c(Nc2ccccc2)nn(CC(OC(=O)Nc2cccc(C(F)(F)F)c2)c2ccccc2)c1N (stereo not drawn)
113

Return the recorded growth at 10 µM value; entry: CCCCC(O)Cn1nc(Nc2cccc(Cl)c2)c(C(=O)OCC)c1N (stereo not drawn)
140

Tell me measured growth at 10 µM for CCOC(=O)c1c(Nc2ccc(C)cc2)nn(CC(O)c2ccccc2)c1N (stereo not drawn) please.
117

Retrieve growth at 10 µM measured for CCOC(=O)c1c(Nc2ccc(Cl)cc2)nn(CC(OC(=O)Nc2cccc(C(F)(F)F)c2)c2ccccc2)c1N (stereo not drawn) and print it.
121

Supply measured growth at 10 µM of CCCCC(O)Cn1nc(Nc2ccccc2Cl)c(C(=O)OCC)c1N (stereo not drawn) in your reply.
126

Look up growth at 10 µM of CCCCC(O)Cn1nc(Nc2ccc(Cl)cc2)c(C(=O)OCC)c1N (stereo not drawn) and report it.
137

State, in one line, measured growth at 10 µM of CCOC(=O)c1c(Nc2ccc(C)cc2)nn(CC(OC(=O)Nc2cccc(C(F)(F)F)c2)c2ccccc2)c1N (stereo not drawn)
124

###

Kindly supply the reported Activity values for the records listed here.
# Test Protocol: Cytotoxicity against human GM06114 cells assessed as growth rate at 10 uM incubated for 48 hrs by MTT assay relative to control
# Type: toxicity, cell-based
# Condition: gm06114, 48 h
Report only the number, with the unit % understood.

Annotate the compound CCCCC(O)Cn1nc(Nc2ccccc2C)c(C(=O)OCC)c1N (stereo not drawn) with its measured Activity.
114.61

Look up and state reported Activity for CCCCC(Cn1nc(Nc2ccc(Cl)cc2)c(C(=O)OCC)c1N)OC(=O)Nc1cccc(C(F)(F)F)c1 (stereo not drawn)
111.34

Query Activity for CCOC(=O)c1c(Nc2ccccc2)nn(CC(OC(=O)Nc2cccc(C(F)(F)F)c2)c2ccccc2)c1N (stereo not drawn)
126.08

State its Activity for this compound: CCCCC(O)Cn1nc(Nc2ccccc2)c(C(=O)OCC)c1N (stereo not drawn)
97.13

Supply reported Activity belonging to this compound: CCCCC(O)Cn1nc(Nc2cccc(C)c2)c(C(=O)OCC)c1N (stereo not drawn)
110.95

Please indicate Activity recorded for CCCCC(O)Cn1nc(Nc2ccccc2Cl)c(C(=O)OCC)c1N (stereo not drawn)
92.72

Supply reported Activity belonging to this compound: CCCCC(O)Cn1nc(Nc2ccc(Cl)cc2)c(C(=O)OCC)c1N (stereo not drawn)
93.96

Name the recorded Activity of the item CCCCC(Cn1nc(Nc2ccccc2C)c(C(=O)OCC)c1N)OC(=O)Nc1cccc(C(F)(F)F)c1 (stereo not drawn) in your answer.
110.05

Consider the compound CCCCC(Cn1nc(Nc2ccccc2Cl)c(C(=O)OCC)c1N)OC(=O)Nc1cccc(C(F)(F)F)c1 (stereo not drawn) and give its recorded Activity.
92.97

Query Activity for CCOC(=O)c1c(Nc2ccc(C)cc2)nn(CC(O)c2ccccc2)c1N (stereo not drawn)
105.89

Please indicate Activity recorded for CCOC(=O)c1c(Nc2ccc(C)cc2)nn(CC(OC(=O)Nc2cccc(C(F)(F)F)c2)c2ccccc2)c1N (stereo not drawn)
126.2

Return reported Activity. Input compound: CCCCC(O)Cn1nc(Nc2cccc(Cl)c2)c(C(=O)OCC)c1N (stereo not drawn)
92.22

Let me know recorded Activity for CCOC(=O)c1c(Nc2ccc(Cl)cc2)nn(CC(OC(=O)Nc2cccc(C(F)(F)F)c2)c2ccccc2)c1N (stereo not drawn) , thanks.
131.1

Quickly give me recorded Activity for CCCCC(Cn1nc(Nc2ccccc2)c(C(=O)OCC)c1N)OC(=O)Nc1cccc(C(F)(F)F)c1 (stereo not drawn)
96.63

Tell me measured Activity for CCOC(=O)c1c(Nc2ccccc2)nn(CC(O)c2ccccc2)c1N (stereo not drawn) please.
96.04

Let me know recorded Activity for CCOC(=O)c1c(Nc2ccc(Cl)cc2)nn(CC(O)c2ccccc2)c1N (stereo not drawn) , thanks.
113.67

Identify measured Activity corresponding to CCCCC(Cn1nc(Nc2ccc(C)cc2)c(C(=O)OCC)c1N)OC(=O)Nc1cccc(C(F)(F)F)c1 (stereo not drawn)
99.16

Provide one value: measured Activity of CCCCC(O)Cn1nc(Nc2ccc(C)cc2)c(C(=O)OCC)c1N (stereo not drawn)
106.98

###

Would you mind telling me the reported growth at 10 µM of each entry?
# Tested on: HepG2
# Test Protocol: Antiproliferative activity against human HepG2 cells assessed as growth rate at 10 uM incubated for 48 hrs by MTT assay relative to control
# Format: functional
# Condition: read-out: Activity
Quick reminder: number only, in %, skip the unit.

Quick one: give measured growth at 10 µM for CCCCC(O)Cn1nc(Nc2ccc(C)cc2)c(C(=O)OCC)c1N (stereo not drawn)
99

Give the reported growth at 10 µM for this compound. CCOC(=O)c1c(Nc2ccc(C)cc2)nn(CC(OC(=O)Nc2cccc(C(F)(F)F)c2)c2ccccc2)c1N (stereo not drawn)
122

# return recorded growth at 10 µM for entry CCCCC(O)Cn1nc(Nc2ccccc2Cl)c(C(=O)OCC)c1N (stereo not drawn)
102

Kindly indicate its recorded growth at 10 µM. Item: CCOC(=O)c1c(Nc2ccc(Cl)cc2)nn(CC(O)c2ccccc2)c1N (stereo not drawn)
102

For the compound CCCCC(O)Cn1nc(Nc2cccc(C)c2)c(C(=O)OCC)c1N (stereo not drawn) , report growth at 10 µM.
105

Given the compound CCCCC(Cn1nc(Nc2ccc(Cl)cc2)c(C(=O)OCC)c1N)OC(=O)Nc1cccc(C(F)(F)F)c1 (stereo not drawn) , write its reported growth at 10 µM.
110

Given the compound CCCCC(O)Cn1nc(Nc2ccccc2C)c(C(=O)OCC)c1N (stereo not drawn) , write its reported growth at 10 µM.
99.9

Look up and state reported growth at 10 µM for CCOC(=O)c1c(Nc2ccc(C)cc2)nn(CC(O)c2ccccc2)c1N (stereo not drawn)
102

Give recorded growth at 10 µM. CCCCC(Cn1nc(Nc2ccccc2C)c(C(=O)OCC)c1N)OC(=O)Nc1cccc(C(F)(F)F)c1 (stereo not drawn)
106

Entry CCCCC(O)Cn1nc(Nc2cccc(Cl)c2)c(C(=O)OCC)c1N (stereo not drawn) needs its growth at 10 µM filled in; supply it.
108

Tell me measured growth at 10 µM for CCCCC(O)Cn1nc(Nc2ccc(Cl)cc2)c(C(=O)OCC)c1N (stereo not drawn) please.
108

Could you please provide reported growth at 10 µM for CCCCC(Cn1nc(Nc2ccccc2)c(C(=O)OCC)c1N)OC(=O)Nc1cccc(C(F)(F)F)c1 (stereo not drawn) ? Thanks!
107

For CCCCC(O)Cn1nc(Nc2ccccc2)c(C(=O)OCC)c1N (stereo not drawn) , write its growth at 10 µM.
102

Fill in reported growth at 10 µM for this entry: CCOC(=O)c1c(Nc2ccccc2)nn(CC(O)c2ccccc2)c1N (stereo not drawn)
108

Return growth at 10 µM (reported value) for this compound: CCOC(=O)c1c(Nc2ccc(Cl)cc2)nn(CC(OC(=O)Nc2cccc(C(F)(F)F)c2)c2ccccc2)c1N (stereo not drawn)
120

State its growth at 10 µM: CCOC(=O)c1c(Nc2ccccc2)nn(CC(OC(=O)Nc2cccc(C(F)(F)F)c2)c2ccccc2)c1N (stereo not drawn)
117

Give recorded growth at 10 µM. CCCCC(Cn1nc(Nc2ccc(C)cc2)c(C(=O)OCC)c1N)OC(=O)Nc1cccc(C(F)(F)F)c1 (stereo not drawn)
111

Return the recorded growth at 10 µM value; entry: CCCCC(Cn1nc(Nc2ccccc2Cl)c(C(=O)OCC)c1N)OC(=O)Nc1cccc(C(F)(F)F)c1 (stereo not drawn)
110
